Entry source: patent US20240366598A1

Overview of reported log10 of IC50 across a group of molecules:
# ASSAYED SYSTEM: human Glucose-dependent Insulinotropic Polypeptide Receptor (hGIPR) (Homo sapiens, UniProt P48546)
# Sequence (P48546 22-466): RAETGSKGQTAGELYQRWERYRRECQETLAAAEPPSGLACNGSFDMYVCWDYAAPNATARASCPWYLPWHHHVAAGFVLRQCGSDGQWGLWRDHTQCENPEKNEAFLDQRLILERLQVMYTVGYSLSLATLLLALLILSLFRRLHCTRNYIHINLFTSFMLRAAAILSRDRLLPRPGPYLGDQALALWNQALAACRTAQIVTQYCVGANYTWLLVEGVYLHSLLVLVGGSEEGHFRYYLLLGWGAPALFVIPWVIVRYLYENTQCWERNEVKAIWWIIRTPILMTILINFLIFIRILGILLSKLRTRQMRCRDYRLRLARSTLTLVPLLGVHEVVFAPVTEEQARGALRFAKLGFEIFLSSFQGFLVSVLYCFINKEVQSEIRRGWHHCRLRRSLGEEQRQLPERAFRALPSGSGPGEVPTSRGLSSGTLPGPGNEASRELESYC
# MEASUREMENT DESCRIPTION: Functional in vitro GIPR antagonist potency assay (cAMP HTRF, CHO-K1 cells stably expressing hGIPR, hGIP stimulation at about EC80)
# REPORTED CONDITIONS: geometric mean, hGIP at estimated EC80, examples marked ^2: overall geometric mean of multiple forms (including salts) tested
READOUT TYPE: log10 of IC50 (log10 of the value in nM)

[
  {
    "MOLECULE": "CC(C)c1ccc(NC(=O)N2CCC[C@@H]2C(=O)Nc2ccc(-c3ccc(C(=O)O)c(F)c3)cc2)cc1 [Example 28]",
    "log10 of IC50": 1.00
  },
  {
    "MOLECULE": "CC(C)c1ccc(NC(=O)N2CCC[C@@H]2C(=O)Nc2ccc(-c3ccc(C(=O)O)nc3)cc2F)cc1 [Example 65]",
    "log10 of IC50": 1.11
  },
  {
    "MOLECULE": "COc1cc(NC(=O)N2CCC[C@@H]2C(=O)Nc2ccc(-c3ccc(C(=O)O)cc3)cc2)ccc1C(F)(F)F [Example 143]",
    "log10 of IC50": 1.54
  },
  {
    "MOLECULE": "Cc1cc(C(=O)O)ccc1-c1ccc(NC(=O)[C@H]2CCCN2C(=O)Nc2ccc(C(C)C)c(C)c2)nc1 [Example 173]",
    "log10 of IC50": 0.64
  },
  {
    "MOLECULE": "O=C(O)c1ccc(-c2ccc(NC(=O)[C@H]3CCCN3C(=O)Nc3cccc(Cl)c3)cc2)cc1 [Example 74]",
    "log10 of IC50": 1.91
  },
  {
    "MOLECULE": "CC(C)c1ccc(NC(=O)N2CCC[C@@H]2C(=O)Nc2ccc(-c3ccc(O)c(C#N)c3)cc2)cc1 [Example 100]",
    "log10 of IC50": 1.43
  },
  {
    "MOLECULE": "CC(C)c1ccc(NC(=O)N2CCC[C@@H]2C(=O)Nc2ccc(-c3ccc(C(=O)O)cc3)cc2)c(F)c1 [Example 117]",
    "log10 of IC50": 1.41
  },
  {
    "MOLECULE": "Cc1cc(NC(=O)N2CCC[C@@H]2C(=O)Nc2ccc(-c3ccc(C(=O)O)cn3)cc2)ccc1C(C)C [Example 180]",
    "log10 of IC50": 1.72
  },
  {
    "MOLECULE": "CC(C)c1ccc(NC(=O)N2CCC[C@@H]2C(=O)Nc2ccc(-c3ccc(C(=O)O)cn3)cc2)cc1F [Example 182]",
    "log10 of IC50": 1.36
  },
  {
    "MOLECULE": "Cc1cc(NC(=O)N2CCC[C@@H]2C(=O)Nc2ccc(-c3ccc(C(=O)O)nc3C)cc2)ccc1C(C)C [Example 168]",
    "log10 of IC50": 1.18
  },
  {
    "MOLECULE": "COc1cc(C(=O)O)c(F)cc1-c1ccc(NC(=O)[C@H]2CCCN2C(=O)Nc2ccc(C(C)C)cc2)cc1 [Example 81]",
    "log10 of IC50": 2.32
  },
  {
    "MOLECULE": "CC(C)c1ccc(NC(=O)N2CCC[C@@H]2C(=O)Nc2ccc(-c3ccc(C(=O)O)cc3Cl)cc2)cc1 [Example 79]",
    "log10 of IC50": 1.18
  },
  {
    "MOLECULE": "CC(C)c1ccc(NC(=O)N2CCC[C@@H]2C(=O)Nc2ccc(-c3ccc(C(=O)O)cc3)cc2)c(Cl)c1 [Example 135]",
    "log10 of IC50": 1.72
  },
  {
    "MOLECULE": "COc1cc(-c2ccc(NC(=O)[C@H]3CCCN3C(=O)Nc3ccc(C(C)C)cc3)cc2)c(F)cc1C(=O)O [Example 89]",
    "log10 of IC50": 1.26
  },
  {
    "MOLECULE": "CC(C)c1ccc(NC(=O)N2CCC[C@@H]2C(=O)Nc2ccc(-c3ccc(C(=O)O)cc3)cc2)cc1 (racemic) [Example 44]",
    "log10 of IC50": 0.83
  },
  {
    "MOLECULE": "C=C(C)c1ccc(NC(=O)N2CCC[C@@H]2C(=O)Nc2ccc(-c3ccc(C(=O)O)cc3)cc2)cc1 [Example 12]",
    "log10 of IC50": 1.00
  },
  {
    "MOLECULE": "O=C(O)c1ccc(-c2ccc(NC(=O)[C@H]3CCCN3C(=O)NCc3c(F)cc(Cl)cc3F)cc2)cc1 [Example 133]",
    "log10 of IC50": 2.26
  },
  {
    "MOLECULE": "CC(C)c1ccc(NC(=O)N2CCC[C@@H]2C(=O)Nc2ccc(-c3cc(Cl)c(C(=O)O)cc3F)cc2)cc1 [Example 98]",
    "log10 of IC50": 1.48
  },
  {
    "MOLECULE": "CC(C)c1ccc(CNC(=O)N2CCC[C@@H]2C(=O)Nc2ccc(-c3ccc(C(=O)O)c(F)c3)cn2)cc1 [Example 189]",
    "log10 of IC50": 1.62
  },
  {
    "MOLECULE": "Cc1cc(NC(=O)N2CCC[C@@H]2C(=O)Nc2ccc(-c3ccc(C(=O)O)nc3C)cc2)ccc1C(F)(F)F [Example 167]",
    "log10 of IC50": 0.86
  },
  {
    "MOLECULE": "O=C(O)c1ccc(-c2ccc(NC(=O)[C@H]3CCCN3C(=O)Nc3ccc(Cl)c(Cl)c3)cc2)cc1 [Example 73]",
    "log10 of IC50": 1.08
  },
  {
    "MOLECULE": "CC[C@@H]1CCN(C(=O)Nc2ccc(C(C)C)cc2)[C@H]1C(=O)Nc1ccc(-c2ccc(C(=O)O)cc2)cc1 (single isomer, unassigned) [Example 166]",
    "log10 of IC50": 0.76
  },
  {
    "MOLECULE": "Cc1nc(NC(=O)N2CCC[C@@H]2C(=O)Nc2ccc(-c3ccc(C(=O)O)cc3)cc2)ccc1C(C)C [Example 102]",
    "log10 of IC50": 2.84
  },
  {
    "MOLECULE": "COc1cc(-c2ccc(NC(=O)[C@H]3CCCN3C(=O)Nc3ccc(C(F)(F)F)cc3)cc2)ccc1C(=O)O [Example 170]",
    "log10 of IC50": 1.60
  },
  {
    "MOLECULE": "O=C(O)c1cccc(-c2ccc(NC(=O)[C@H]3CCCN3C(=O)Nc3ccc(Cl)c(C(F)(F)F)c3)nc2)c1 [Example 188]",
    "log10 of IC50": 1.51
  },
  {
    "MOLECULE": "O=C(O)c1ccc(-c2ccc(NC(=O)[C@H]3CCCN3C(=O)NCc3ccc(C(F)(F)F)cc3)cc2)cn1 [Example 195]",
    "log10 of IC50": 1.54
  },
  {
    "MOLECULE": "Cc1cc(C(=O)O)cc(-c2ccc(NC(=O)[C@H]3CCCN3C(=O)Nc3ccc(C(C)C)cc3)cc2)c1 [Example 50]",
    "log10 of IC50": 1.92
  }
]

----------
# ASSAYED SYSTEM: human Glucose-dependent Insulinotropic Polypeptide Receptor (hGIPR) (Homo sapiens, UniProt P48546)
# MEASUREMENT DESCRIPTION: Functional in vitro GIPR antagonist potency assay (cAMP HTRF, CHO-K1 cells stably expressing hGIPR, hGIP stimulation at about EC80)
# REPORTED CONDITIONS: geometric mean, hGIP at estimated EC80, examples marked ^2: overall geometric mean of multiple forms (including salts) tested
pIC50: −log10 of the molar value.
READOUT TYPE: pIC50

[
  {
    "MOLECULE": "O=C(O)c1ccc(-c2ccc(NC(=O)[C@H]3CCCN3C(=O)Nc3cnc(C(F)(F)F)nc3)cc2)cc1",
    "READOUT TYPE": "pIC50",
    "ENDPOINT VALUE": 7.04
  },
  {
    "MOLECULE": "CC(C)c1ccc(NC(=O)N2C[C@H]3C[C@H]3[C@@H]2C(=O)Nc2ccc(-c3cccc(C(=O)O)c3)cc2)cc1",
    "READOUT TYPE": "pIC50",
    "ENDPOINT VALUE": 7.24
  },
  {
    "MOLECULE": "Cc1nc(C(=O)O)ccc1-c1ccc(NC(=O)[C@H]2CCCN2C(=O)NCc2ccc(C(F)(F)F)cc2)cc1",
    "READOUT TYPE": "pIC50",
    "ENDPOINT VALUE": 7.85
  },
  {
    "MOLECULE": "Cc1ccc(CNC(=O)N2CCC[C@@H]2C(=O)Nc2ccc(-c3ccc(C(=O)O)nc3C)cc2)cc1F",
    "READOUT TYPE": "pIC50",
    "ENDPOINT VALUE": 7.74
  },
  {
    "MOLECULE": "O=C(O)c1ccc(-c2ccc(NC(=O)[C@H]3CCCN3C(=O)Nc3cc(Cl)cc(Cl)c3)cc2)cc1",
    "READOUT TYPE": "pIC50",
    "ENDPOINT VALUE": 7.46
  },
  {
    "MOLECULE": "CC(C)c1ccc(NC(=O)N2CCC[C@@H]2C(=O)Nc2ccc(-c3ncc(C(=O)O)cn3)cc2)cc1",
    "READOUT TYPE": "pIC50",
    "ENDPOINT VALUE": 6.82
  },
  {
    "MOLECULE": "O=C(O)c1ccc(-c2ccc(NC(=O)[C@H]3CCCN3C(=O)Nc3ccc(C(F)(F)F)cc3)cc2)cc1F",
    "READOUT TYPE": "pIC50",
    "ENDPOINT VALUE": 7.85
  },
  {
    "MOLECULE": "Cc1cc(C(=O)O)ncc1-c1ccc(NC(=O)[C@H]2CCCN2C(=O)Nc2ccc(C(C)C)cc2)cc1",
    "READOUT TYPE": "pIC50",
    "ENDPOINT VALUE": 7.19
  },
  {
    "MOLECULE": "Cc1nc(C(=O)O)ccc1-c1ccc(NC(=O)[C@H]2CCCN2C(=O)Nc2cnc(C(C)C)c(F)c2)cc1",
    "READOUT TYPE": "pIC50",
    "ENDPOINT VALUE": 7.05
  },
  {
    "MOLECULE": "CC(C)c1ccc(NC(=O)N2CCC[C@@H]2C(=O)Nc2ccc(-c3ccc(O)cc3)cc2)cc1",
    "READOUT TYPE": "pIC50",
    "ENDPOINT VALUE": 6.80
  },
  {
    "MOLECULE": "CC(C)c1ccc(NC(=O)N2CCC[C@@H]2C(=O)Nc2ccc(-c3ccc(C(=O)O)cc3)cc2)cc1 [Example 4]",
    "READOUT TYPE": "pIC50",
    "ENDPOINT VALUE": 8.39
  },
  {
    "MOLECULE": "Cc1cc(NC(=O)N2CCC[C@@H]2C(=O)Nc2ccc(-c3cccc(C(=O)O)c3)cn2)ncc1C(F)(F)F",
    "READOUT TYPE": "pIC50",
    "ENDPOINT VALUE": 7.66
  },
  {
    "MOLECULE": "CCc1cc(-c2ccc(NC(=O)[C@H]3CCCN3C(=O)Nc3ccc(C(C)C)cc3)cc2)ccc1C(=O)O",
    "READOUT TYPE": "pIC50",
    "ENDPOINT VALUE": 7.89
  },
  {
    "MOLECULE": "CC(C)c1ccc(NC(=O)N2CCC[C@@H]2C(=O)Nc2ccc(-c3ccc(C(=O)O)cn3)cc2)cc1",
    "READOUT TYPE": "pIC50",
    "ENDPOINT VALUE": 7.13
  }
]
